- experimental.system: T1, His-tagged CEACAM1 (human, UniProt P13688 35-428)
- T1 construct: 45 kDa SPR analyte; also called CEACAM1-HIS; CEACAM1 analyte
- T1 sequence: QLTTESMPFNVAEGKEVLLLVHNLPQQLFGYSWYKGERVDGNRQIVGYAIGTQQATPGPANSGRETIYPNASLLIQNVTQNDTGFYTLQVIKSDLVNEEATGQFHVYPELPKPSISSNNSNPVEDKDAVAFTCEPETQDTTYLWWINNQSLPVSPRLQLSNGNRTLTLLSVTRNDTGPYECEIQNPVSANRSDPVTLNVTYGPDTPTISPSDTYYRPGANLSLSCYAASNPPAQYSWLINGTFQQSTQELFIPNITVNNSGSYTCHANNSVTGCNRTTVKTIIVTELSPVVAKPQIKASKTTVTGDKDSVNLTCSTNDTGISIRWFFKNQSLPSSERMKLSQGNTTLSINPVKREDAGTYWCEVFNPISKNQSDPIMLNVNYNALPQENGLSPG
- method.notes: SPR single-cycle, supernatant IgG captured
property.measured: Kd (nM)
Supply the numeric figure in nM, leaving out any unit text.

CP08B06/Vκ8 S29A (antibody, IgG4, V domains shown, IgG4 (S241P), kappa) VH: EVQLLESGGGLVQPGGSLRLSCAASGFSFNSHAISWVRQAPGKGLEWVATISSGGTYTYYPDSVKGRFTISRDNSKNTLYLQMNSLKAEDTAMYYCARHDFDYDAAWFAYWGQGTLVTVSS VL: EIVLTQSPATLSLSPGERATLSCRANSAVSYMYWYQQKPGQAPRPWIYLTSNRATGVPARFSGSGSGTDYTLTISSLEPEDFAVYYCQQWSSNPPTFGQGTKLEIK	420
CP09G03/Vκ8 S29A (antibody, IgG4, V domains shown, IgG4 (S241P), kappa) VH: EVQLLESGGGLVQPGGSLRLSCAASGFTFNAHAMSWVRQAPGKGLEWVATISSGGTYTYYPDSVKGRFTISRDNSKNTLYLQMNSLKAEDTAMYYCARHDFDYDAAWFAYWGQGTLVTVSS VL: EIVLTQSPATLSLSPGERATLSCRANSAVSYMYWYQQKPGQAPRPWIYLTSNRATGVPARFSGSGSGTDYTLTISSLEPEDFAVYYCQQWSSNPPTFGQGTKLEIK	350

Request: Return Kd for the following binder: CP08H01/Vκ8 S29A (antibody, IgG4, V domains shown, IgG4 (S241P), kappa) VH: EVQLLESGGGLVQPGGSLRLSCAASGFIFSSHGMSWVRQAPGKGLEWVATISSGGTYTYYPDSVKGRFTISRDNSKNTLYLQMNSLKAEDTAMYYCAKHPPDYFAAWFAYWGQGTLVTVSS VL: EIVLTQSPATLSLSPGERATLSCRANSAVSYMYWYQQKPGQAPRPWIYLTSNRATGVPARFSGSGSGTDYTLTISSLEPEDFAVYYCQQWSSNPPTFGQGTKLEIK
Result: 420
